Reference source: PubChem BioAssay (NCI)

# Tested on: NCI-H322M lung
# experiment_notes: NCI-60 one-dose screen, 48 h (100 = growth as untreated, 0 = no growth, -100 = all killed)
# test_context: 10 µM unless noted
About 83,000 compounds went through this panel and 20% of them were active in at least one assay; those are over-represented in the sample as a whole.
Reported values of growth for individual entries
Give the value, in units of %, as a plain number.

{"columns": ["molecule", "growth, %"],
 "data": [
  ["C=CCCCC(=O)CCC(=O)OCC1O[C@@H](O[C@@H]2C(O)[C@@H](OC(C)=O)C(C)O[C@H]2O[C@H](CC=C)CCCCC)C(O)[C@@H](OC(=O)/C(C)=C/C)[C@@H]1OC(=O)/C=C/c1ccccc1 (some centres undefined)", 39.6]
]}

# get_value(readout='growth', item= "NC1(C(=O)N[C@@H](CCO)c2ccc(Cl)cc2)CCN(c2ncnc3[nH]ccc23)CC1" )
55

What value of growth has been recorded for this entry: "COc1cc(N2CCC(N(C)C)CC2)ccc1Nc1ncc(Cl)c(Nc2ccccc2P(C)(C)=O)n1"
-9.57

Please report the recorded growth for "C=C1[C@@H](O)C[C@H]2C(C)(C)C[C@H](Cl)C[C@]2(C)[C@H]1C[C@H](O)[C@H]1CC(=O)NC1=O" .
-8.41

====

# Tested on: SW-620 colon
# experiment_notes: NCI-60 one-dose screen, 48 h
# test_context: 10 µM unless noted
Compounds without any hit were thinned out: in the full panel of roughly 83,000, 20% have a hit. The source made the active and inactive calls. The calls were made as follows: active = growth percent below 10; inactive = the rest.
Thanks in advance; please answer with one of these: t (active), f (inactive)

Study these solved cases before continuing.
{"columns": ["structure", "category_label"],
 "data": [
  ["CCN1CCN(c2nc(C)cc(N(CCCNc3ccnc4cc(Cl)ccc34)Cc3ccc4c(c3)OCO4)n2)CC1", "t"],
  ["CCN(CC)c1cc2oc3cc(N)cc(=N)c-3nc2cc1C", "f"],
  ["C=CC[n+]1c(/C=C2\\Sc3ccccc3N2C)sc(-c2ccccc2)c1-c1ccccc1", "f"],
  ["Cc1ccc2oc(=O)cc(-c3cc(-c4cc5ccccc5oc4=O)nc(N)c3C#N)c2c1", "f"]
]}

So what was the verdict on "C=CC(=O)Nc1cccc(Nc2nc(Nc3ccc(N4CCN(C(C)=O)CC4)cc3OC)ncc2C(F)(F)F)c1" in this test?
t

Assay outcome for "CCNC(=O)Nc1nc2ccc(Oc3ccnc(C(=O)NC)c3)cc2s1" : what was it?
f

Lab log entry: "O=C1NC(=O)[C@@H](c2cn3c4c(cccc24)CCC3)[C@@H]1c1c[nH]c2ccccc12" — outcome as called in the assay?
f

Record lookup: outcome of this test for "O=C(CNc1nnc(-c2ccc(Cl)cc2)o1)Nc1ccc(-c2nc3ccccc3s2)cc1" ?
f

What did this assay record as the result for "Cc1nc2ccc(-n3ncc(C(=O)c4cc5ccccc5[nH]4)c3N)cc2[nH]1" ?
f

Which outcome did this test record for the molecule "O=C(Cn1cncn1)Nc1ccc(-c2nc3ccccc3s2)cc1" ?
f

====

# Tested on: SK-OV-3 ovarian
# experiment_notes: NCI-60 one-dose screen, 48 h
# test_context: 10 µM unless noted
Compounds without any hit were thinned out: in the full panel of roughly 83,000, 20% have a hit. Active and inactive are the calls of the source. Rule for the calls: active = growth percent below 10; inactive = the rest.
Your answer must be one of the following: class 1 (active), class 0 (inactive)

Study these solved cases before continuing.
{"columns": ["molecule", "assayed_target", "category_label"],
 "data": [
  ["COc1cc2c(cc1O)c(=O)n(CCN(C)C)c1c3cc4c(cc3ncc21)OCO4", "SK-OV-3 ovarian", "class 1"],
  ["O=C(c1ccc(F)c(F)c1Nc1ccc(I)cc1F)N1CC(O)([C@@H]2CCCCN2)C1", "SK-OV-3 ovarian", "class 0"],
  ["CC1CCC(n2cnc3c(Cl)ncnc32)O1 (stereo not given)", "SK-OV-3 ovarian", "class 0"],
  ["Cc1ccc(F)c(NC(=O)Nc2ccc(-c3cccc4[nH]nc(N)c34)cc2)c1", "SK-OV-3 ovarian", "class 0"],
  ["Cc1[nH]c(/C=C2\\C(=O)Nc3ccc(F)cc32)c(C)c1C(=O)NC[C@H](O)CN1CCOCC1", "SK-OV-3 ovarian", "class 1"]
]}

Then there is this molecule:
Record request — test call for "CS(=O)(=O)N1CCN(Cc2cc3nc(-c4cccc5[nH]ncc45)nc(N4CCOCC4)c3s2)CC1"
class 1

====

# Test system: MDA-MB-435 melanoma
# experiment_notes: NCI-60 one-dose screen, 48 h
# test_context: 10 µM unless noted
Compounds without any hit were thinned out: in the full panel of roughly 83,000, 20% have a hit. The source made the active and inactive calls. Rule for the calls: active = growth percent below 10; inactive = the rest.
Permitted responses: active, inactive

Sample answers from the record:
{"columns": ["molecule", "assayed_target", "category_label"],
 "data": [
  ["O=C(c1ccc(F)c(F)c1Nc1ccc(I)cc1F)N1CC(O)([C@@H]2CCCCN2)C1", "MDA-MB-435 melanoma", "inactive"],
  ["COC1CCC(N2C(=O)CNc3ncc(-c4ccc(C(C)(C)O)nc4)nc32)CC1 (centres undefined)", "MDA-MB-435 melanoma", "active"],
  ["CCc1ccc(C2=C(O)C(=O)C(c3ccc(CC)cc3)=C(O)C2=O)cc1", "MDA-MB-435 melanoma", "active"]
]}

What did this assay record as the result for "c1cc(OCCN2CCCCC2)cc(-c2n[nH]c3ccc(-c4ncn[nH]4)cc23)c1" ?
inactive

Tell me the assay call for "C=C1CC[C@@H]2[C@](C)(COC(C)=O)[C@H](OC(C)=O)CC[C@@]2(C)[C@@H]1C/C=C1/C(=O)OC[C@H]1OC(C)=O" please.
inactive

Just curious, what result did "CC(C)c1ccc(/C=N/Nc2nc3ccccc3s2)cc1" get here?
inactive

Which outcome did this test record for the molecule "CCN1CCN(c2nc(C)cc(N(CCNc3ccnc4cc(Cl)ccc34)Cc3ccc4c(c3)OCO4)n2)CC1" ?
active

Look up the recorded call for "COc1cc(NCCCN)c2ncccc2c1" in this test.
inactive

====

# System: NCI-H226 lung
# experiment_notes: NCI-60 one-dose screen, 48 h (100 = growth as untreated, 0 = no growth, -100 = all killed)
# test_context: 10 µM unless noted
This is part of a sample that, as a whole, favours compounds with a hit. Of some 83,000 tested, about 20% had one in any assay. Activity calls are given as the source filed them. The calls were made as follows: active = growth percent below 10; inactive = the rest.
Recorded measurements of growth, one per entry

{"columns": ["compound", "assayed_target", "growth"],
 "data": [
  ["O=C(Cc1ccccc1)Nc1nnc(NC2CCN(c3nnc(NC(=O)Cc4ccccc4)s3)CC2)s1", "NCI-H226 lung", "98.7% (inactive)"]
]}

Would you kindly share the measured growth for "COc1ccc2c(c1OC)C(=O)O[C@@H]2[C@H]1c2c(c(C#CC#Cc3ccc(F)c(F)c3)c3c(c2OC)OCO3)CCN1C" ?
95.1% (inactive)

# growth lookup, item "COc1ccc(OC)c(NC2=C(SCCc3ccccc3)C(=O)c3ccccc3C2=O)c1"
78.8% (inactive)

Value lookup for growth; key = "CCCCn1c(C)nc2cc(Nc3nc(N4CCCCC4)nc4nc[nH]c34)ccc21"
44.4% (inactive)

Consider the compound shown here: COC(=O)C1=C(C(=O)OC)C23C=C(C)C1C2=C(C)C1(CC1)[C@@](C)(O)C3=O (some centres undefined) What is its recorded growth?
-34.8% (active)

Give the measured growth of "CC[n+]1c(/C=C/C=C2\N(C)c3ccccc3C2(C)C)sc2ccccc21" .
20% (inactive)

Field request: growth | item: "CNC(=O)c1nn(C)c2c1C(C)(C)Cc1cnc(Nc3ccc(N4CCN(C)CC4)cc3)nc1-2"
12.3% (inactive)

Form field: reported growth of "CNC(=O)c1cc(Oc2cccc3nc(Nc4ccc(Oc5ccccc5)cc4)ccc23)ccn1"
66% (inactive)

Would you mind telling me what growth value was observed for "O=C1/C(=C\c2cccc(OCCCCCOc3ccc(Cl)cc3)c2)N=C2SCCCN12" ?
60.3% (inactive)

====

# Tested on: PC-3 prostate
# experiment_notes: NCI-60 one-dose screen, 48 h
# test_context: 10 µM unless noted
Compounds without any hit were thinned out: in the full panel of roughly 83,000, 20% have a hit. Activity calls are given as the source filed them. The calls were made as follows: active = growth percent below 10; inactive = the rest.
Give your call using only these classes: TRUE (active), FALSE (inactive)

Worked examples, 3 molecules total:
{"columns": ["molecule", "category_label"],
 "data": [
  ["CC(=O)CC1CCCC1c1ccc2ccccc2c1 (stereo not given)", "FALSE"],
  ["O=C1C=CC2(NN=C(c3ccccc3)N2c2cccc(Cl)c2)C(Cl)=C1 (stereo not given)", "FALSE"],
  ["Cc1cc(C(=O)NOCCO)c(Nc2ccc(I)cc2F)n(C)c1=O", "FALSE"]
]}

// param item: "CCN1CCN(c2cc(C)nc(N(CCCNc3ccnc4cc(Cl)ccc34)Cc3ccc4c(c3)OCO4)n2)CC1" ; yields the recorded call
FALSE

Please state the recorded outcome for this molecule: "O=C(Nc1cccc(Cl)c1)Nc1ncc(CCNc2ncnc3ccsc23)s1"
TRUE
